Values compiled from patent US9340532B2.

Listed here are molecules together with their documented Kd.
- system: AKT1 PH-domain (Homo sapiens, UniProt P31749)
- Construct: The PH-domain His-fusion proteins (CNK1 and AKT1) were expressed and immobilized on a NTA chip; made in house
- Sequence (P31749 5-108 limits assumed): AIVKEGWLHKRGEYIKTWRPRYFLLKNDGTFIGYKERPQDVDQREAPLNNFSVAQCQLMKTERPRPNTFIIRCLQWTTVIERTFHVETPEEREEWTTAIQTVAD
- assay-protocol: SPR binding assay (Biacore T100), AKT1 PH-domain
- condition-details: Table 8; read-out: AKT KD
The figure you give is taken to be in µM; do not add the unit.

Before answering, review these 5 worked examples.
smiles-structure: CCOC(=O)/C=C/c1cc(NS(=O)(=O)c2cccs2)c2c(c1O)OCO2
Kd, µM: 75.2
--
smiles-structure: COc1cc(N)c(SC)c(/C=C/C(=O)O)c1O
Kd, µM: 133
--
smiles-structure: CCOC(=O)/C=C/c1c(O)c(OC)cc(N)c1SC
Kd, µM: 286
--
smiles-structure: CCOC(=O)/C=C/c1c(O)c(O)cc(NS(=O)(=O)c2cccs2)c1SC
Kd, µM: 6.22
--
smiles-structure: CSc1c(N)cc(O)c(O)c1/C=C/C(=O)O
Kd, µM: 178

Now for a further molecule.
Kd for CCOC(=O)/C=C/c1c(O)c(O)cc(N)c1SC ?
140
